Recorded Semi-quantitative analysis of proteins binding to different plaque particles: Tau, one value per entry.
- Tested on: Tau plaque particles
- Assay Text: Mass spectroscopy proteomics, semi-quantitative binding affinity of serum proteins (plaqueproteome, Table 2)
- Set-up: species or system human
- Experimental Setup: higher number = stronger affinity
Measurement Kind: Semi-quantitative analysis of proteins binding to different plaque particles: Tau

>  <Molecule>
Isoform 2 of Arginase-1 (protein) MSAKSRTIGIIGAPFSKGQPRGGVEEGPTVLRKAGLLEKLKEQVTQNFLILECDVKDYGDLPFADIPNDSPFQIVKNPRSVGKASEQLAGKVAEVKKNGRISLVLGGDHSLAIGSISGHARVHPDLGVIWVDAHTDINTPLTTTSGNLHGQPVSFLLKELKGKIPDVPGFSWVTPCISAKDIVYIGLRDVDPGEHYILKTLGIKYFSMTEVDRLGIGKVMEETLSYLLGRKKRPIHLSFDVDGLDPSFTPATGTPVVGGLTYREGLYITEEIYKTGLLSGLDIMEVNPSLGKTPEEVTRTVNTAVAITLACFGLAREGNHKPIDYLNPPK

>  <Reported>
0

$$$$
>  <Molecule>
Caspase-14 (protein) MSNPRSLEEEKYDMSGARLALILCVTKAREGSEEDLDALEHMFRQLRFESTMKRDPTAEQFQEELEKFQQAIDSREDPVSCAFVVLMAHGREGFLKGEDGEMVKLENLFEALNNKNCQALRAKPKVYIIQACRGEQRDPGETVGGDEIVMVIKDSPQTIPTYTDALHVYSTVEGYIAYRHDQKGSCFIQTLVDVFTKRKGHILELLTEVTRRMAEAELVQEGKARKTNPEIQSTLRKRLYLQ

>  <Reported>
0

$$$$
>  <Molecule>
Apolipoprotein A-IV (protein) EVSADQVATVMWDYFSQLSNNAKEAVEHLQKSELTQQLNALFQDKLGEVNTYAGDLQKKLVPFATELHERLAKDSEKLKEEIGKELEELRARLLPHANEVSQKIGDNLRELQQRLEPYADQLRTQVSTQAEQLRRQLTPYAQRMERVLRENADSLQASLRPHADELKAKIDQNVEELKGRLTPYADEFKVKIDQTVEELRRSLAPYAQDTQEKLNHQLEGLTFQMKKNAEELKARISASAEELRQRLAPLAEDVRGNLRGNTEGLQKSLAELGGHLDQQVEEFRRRVEPYGENFNKALVQQMEQLRQKLGPHAGDVEGHLSFLEKDLRDKVNSFFSTFKEKESQDKTLSLPELEQQQEQQQEQQQEQVQMLAPLES

>  <Reported>
10

$$$$
>  <Molecule>
Peroxiredoxin-1 (protein) SSGNAKIGHPAPNFKATAVMPDGQFKDISLSDYKGKYVVFFFYPLDFTFVCPTEIIAFSDRAEEFKKLNCQVIGASVDSHFCHLAWVNTPKKQGGLGPMNIPLVSDPKRTIAQDYGVLKADEGISFRGLFIIDDKGILRQITVNDLPVGRSVDETLRLVQAFQFTDKHGEVCPAGWKPGSDTIKPDVQKSKEYFSKQK

>  <Reported>
0

$$$$
>  <Molecule>
Platelet basic protein (protein) SSTKGQTKRNLAKGKEESLDSDLYAELRCMCIKTTSGIHPKNIQSLEVIGKGTHCNQVEVIATLKDGRKICLDPDAPRIKKIVQKKLAGDESAD

>  <Reported>
2

$$$$
>  <Molecule>
Serum paraoxonase/arylesterase (protein) AKLIALTLLGMGLALFRNHQSSYQTRLNALREVQPVELPNCNLVKGIETGSEDLEILPNGLAFISSGLKYPGIKSFNPNSPGKILLMDLNEEDPTVLELGITGSKFDVSSFNPHGISTFTDEDNAMYLLVVNHPDAKSTVELFKFQEEEKSLLHLKTIRHKLLPNLNDIVAVGPEHFYGTNDHYFLDPYLQSWEMYLGLAWSYVVYYSPSEVRVVAEGFDFANGINISPDGKYVYIAELLAHKIHVYEKHANWTLTPLKSLDFNTLVDNISVDPETGDLWVGCHPNGMKIFFYDSENPPASEVLRIQNILTEEPKVTQVYAENGTVLQGSTVASVYKGKLLIGTVFHKALYCEL

>  <Reported>
3

$$$$
>  <Molecule>
Ig gamma-2 chain C region (protein) ASTKGPSVFPLAPCSRSTSESTAALGCLVKDYFPEPVTVSWNSGALTSGVHTFPAVLQSSGLYSLSSVVTVPSSNFGTQTYTCNVDHKPSNTKVDKTVERKCCVECPPCPAPPVAGPSVFLFPPKPKDTLMISRTPEVTCVVVDVSHEDPEVQFNWYVDGVEVHNAKTKPREEQFNSTFRVVSVLTVVHQDWLNGKEYKCKVSNKGLPAPIEKTISKTKGQPREPQVYTLPPSREEMTKNQVSLTCLVKGFYPSDISVEWESNGQPENNYKTTPPMLDSDGSFFLYSKLTVDKSRWQQGNVFSCSVMHEALHNHYTQKSLSLSPGK

>  <Reported>
11

$$$$
>  <Molecule>
Zinc-alpha-2-glycoprotein (protein) QENQDGRYSLTYIYTGLSKHVEDVPAFQALGSLNDLQFFRYNSKDRKSQPMGLWRQVEGMEDWKQDSQLQKAREDIFMETLKDIVEYYNDSNGSHVLQGRFGCEIENNRSSGAFWKYYYDGKDYIEFNKEIPAWVPFDPAAQITKQKWEAEPVYVQRAKAYLEEECPATLRKYLKYSKNILDRQDPPSVVVTSHQAPGEKKKLKCLAYDFYPGKIDVHWTRAGEVQEPELRGDVLHNGNGTYQSWVVVAVPPQDTAPYSCHVQHSSLAQPLVVPWEAS

>  <Reported>
4

$$$$
